# test system: Human CSL spanning residues 25-449 (human, UniProt Q06330 25-449)
# Sequence (Q06330 25-449): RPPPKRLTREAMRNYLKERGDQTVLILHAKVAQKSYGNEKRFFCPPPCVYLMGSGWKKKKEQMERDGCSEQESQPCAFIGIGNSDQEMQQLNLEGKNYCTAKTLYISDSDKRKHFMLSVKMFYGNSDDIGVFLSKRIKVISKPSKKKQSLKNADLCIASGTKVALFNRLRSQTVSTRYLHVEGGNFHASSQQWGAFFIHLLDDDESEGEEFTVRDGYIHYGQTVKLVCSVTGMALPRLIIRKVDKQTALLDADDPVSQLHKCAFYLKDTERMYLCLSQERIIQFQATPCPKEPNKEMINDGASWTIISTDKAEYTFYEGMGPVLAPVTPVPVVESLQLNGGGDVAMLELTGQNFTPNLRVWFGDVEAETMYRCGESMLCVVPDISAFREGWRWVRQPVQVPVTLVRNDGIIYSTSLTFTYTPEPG
# protocol text: ITC

{"columns": ["binder", "Kd"],
 "data": [
  ["Notch4 RAMANK (domain or fragment, human, UniProt Q99466 1472-1833, looked up) RRRRREHGALWLPPGFTRRPRTQSAPHRRRPPLGEDSIGLKALKPKAEVDEDGVVMCSGPEEGEEVGQAEETGPPSTCQLWSLSGGCGALPQAAMLTPPQESEMEAPDLDTRGPDGVTPLMSAVCCGEVQSGTFQGAWLGCPEPWEPLLDGGACPQAHTVGTGETPLHLAARFSRPTAARRLLEAGANPNQPDRAGRTPLHAAVAADAREVCQLLLRSRQTAVDARTEDGTTPLMLAARLAVEDLVEELIAAQADVGARDKWGKTALHWAAAVNNARAARSLLQAGADKDAQDNREQTPLFLAAREGAVEVAQLLLGLGAARELRDQAGLAPADVAHQRNHWDLLTLLEGAGPPEARHKATP", "≤ 100 nM"],
  ["Notch1 RAMANK (domain or fragment, human, UniProt P46531 1758-2127, looked up) RKRRRQHGQLWFPEGFKVSEASKKKRREPLGEDSVGLKPLKNASDGALMDDNQNEWGDEDLETKKFRFEEPVVLPDLDDQTDHRQWTQQHLDAADLRMSAMAPTPPQGEVDADCMDVNVRGPDGFTPLMIASCSGGGLETGNSEEEEDAPAVISDFIYQGASLHNQTDRTGETALHLAARYSRSDAAKRLLEASADANIQDNMGRTPLHAAVSADAQGVFQILIRNRATDLDARMHDGTTPLILAARLAVEGMLEDLINSHADVNAVDDLGKSALHWAAAVNNVDAAVVLLKNGANKDMQNNREETPLFLAAREGSYETAKVLLDHFANRDITDHMDRLPRDIAQERMHHDIVRLLDEYNLVRSPQLHGA", "≤ 100 nM"],
  ["Notch3 RAMANK (domain or fragment, human, UniProt Q9UM47 1663-2038, looked up) MVARRKREHSTLWFPEGFSLHKDVASGHKGRREPVGQDALGMKNMAKGESLMGEVATDWMDTECPEAKRLKVEEPGMGAEEAVDCRQWTQHHLVAADIRVAPAMALTPPQGDADADGMDVNVRGPDGFTPLMLASFCGGALEPMPTEEDEADDTSASIISDLICQGAQLGARTDRTGETALHLAARYARADAAKRLLDAGADTNAQDHSGRTPLHTAVTADAQGVFQILIRNRSTDLDARMADGSTALILAARLAVEGMVEELIASHADVNAVDELGKSALHWAAAVNNVEATLALLKNGANKDMQDSKEETPLFLAAREGSYEAAKLLLDHFANREITDHLDRLPRDVAQERLHQDIVRLLDQPSGPRSPPGPHG", "≤ 100 nM"]
]}
